- experimental.system: human PDE2A1 (Homo sapiens (Human))
- Sequence (O00408 other isoform, or with tags, fused parts or gaps): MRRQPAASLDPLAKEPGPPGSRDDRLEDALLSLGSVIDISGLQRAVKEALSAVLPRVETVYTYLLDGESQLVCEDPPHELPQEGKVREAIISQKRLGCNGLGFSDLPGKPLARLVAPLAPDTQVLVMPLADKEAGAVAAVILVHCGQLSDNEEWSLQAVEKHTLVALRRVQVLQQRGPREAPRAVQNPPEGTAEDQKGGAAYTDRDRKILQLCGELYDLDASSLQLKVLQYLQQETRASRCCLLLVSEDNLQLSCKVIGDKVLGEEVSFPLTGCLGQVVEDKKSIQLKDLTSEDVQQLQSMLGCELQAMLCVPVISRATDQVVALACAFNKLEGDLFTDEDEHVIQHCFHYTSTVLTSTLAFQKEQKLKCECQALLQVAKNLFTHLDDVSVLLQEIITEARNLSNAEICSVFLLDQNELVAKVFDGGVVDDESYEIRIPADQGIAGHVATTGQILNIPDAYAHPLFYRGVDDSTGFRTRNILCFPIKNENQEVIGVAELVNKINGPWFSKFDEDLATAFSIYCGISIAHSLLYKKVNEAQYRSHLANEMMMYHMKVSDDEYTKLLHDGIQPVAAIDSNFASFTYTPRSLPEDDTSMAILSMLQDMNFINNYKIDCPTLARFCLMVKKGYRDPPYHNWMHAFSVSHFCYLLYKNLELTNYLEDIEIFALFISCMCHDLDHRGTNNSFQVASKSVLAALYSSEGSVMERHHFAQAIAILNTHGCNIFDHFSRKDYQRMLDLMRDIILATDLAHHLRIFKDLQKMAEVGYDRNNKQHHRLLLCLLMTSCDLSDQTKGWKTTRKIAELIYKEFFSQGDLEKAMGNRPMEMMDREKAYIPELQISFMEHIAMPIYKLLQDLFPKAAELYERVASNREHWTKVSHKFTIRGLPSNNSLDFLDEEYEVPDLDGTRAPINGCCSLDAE
- procedure.text: IMAP FP PDE selectivity panel, human PDE2A1
- Type: biochemical
- conditions: Human PDE2, Lab B; read-out: Human PDE2 Ki (nM) - Lab B
property: Ki (nM)
Report the figure in nM without appending any unit label.

Known Ki results, listed for orientation:
>  <chemical.string>
COc1ccc(Cc2nc(C(=O)N[C@@H](c3ccc(S(F)(F)(F)(F)F)cc3)C3CC3)cc(=O)[nH]2)cc1F

>  <property>
Ki

>  <assay.value>
2.8

$$$$
>  <chemical.string>
CC[C@@H](NC(=O)c1cc(=O)[nH]c(Cc2ccc(OC)c(F)c2)n1)c1ccc(SC(F)(F)F)c(F)c1

>  <property>
Ki

>  <assay.value>
2

$$$$
>  <chemical.string>
Cc1nc(C(=O)N[C@@H](c2ccc(C3CC3)cc2)C2CC2)cc(=O)[nH]1

>  <property>
Ki

>  <assay.value>
8.1

$$$$

With those in mind, consider the next compound.
IN: Consider the compound shown here: CC(C)(NC(=O)c1cc(=O)[nH]c(-c2ccccc2)n1)c1ccc(SC(F)(F)F)c(F)c1 What is its recorded Ki?
OUT: 81
